Biological target: EGFR (human)
observation.type: IC50 (µM)
Give bare numbers, in µM.

CN(C)CC(=O)N1CCC[C@@H]1COc1cccc2ncnc(Nc3ccc(OCc4cncs4)c(Cl)c3)c12 has a reported IC50 of 0.26

* * *

Biological target: ROCK2 (human)
Assay: Assessment of ROCK2 Kinase Activity
pIC50: −log10 of the molar value.
Binary classification by pIC50, with 7 as an inclusive lower bound for y; all other cases are n.

Nc1nc(Nc2ccc(Oc3ccnc4[nH]cc(Cl)c34)c(F)c2)cc(C(F)(F)F)n1 : y

Query: Tell me whether pIC50 is at least 7 here: CC1CN(c2ccnc(N)n2)c2ccc([N+](=O)[O-])cc21 (centres undefined)
Result: n

Query: Tell me whether pIC50 is at least 7 here: C[C@@H](NC(=O)c1cccc2c1ccn2-c1ccnc(N)n1)c1ccccc1
Result: y

Query: Tell me whether pIC50 is at least 7 here: N#Cc1c[nH]c2nccc(Oc3ccc(Nc4cc(C(F)(F)F)nc(N)n4)cc3F)c12
Result: y

Query: Tell me whether pIC50 is at least 7 here: CC1CN(c2ccnc(N)n2)c2ccc(Cl)cc21 (centres undefined)
Result: n

Query: Tell me whether pIC50 is at least 7 here: Clc1cnc2ccc(NCCCN3CCOCC3)nn12
Result: n

Query: Tell me whether pIC50 is at least 7 here: CC1CN(c2ccnc(N)n2)c2ccc(F)cc21 (centres undefined)
Result: n

Query: Tell me whether pIC50 is at least 7 here: CCC(C)=O.c1n[nH]cc1-c1cnc2ccc(N3CCCNCC3)nn12
Result: n

* * *

Target: PIK3CA (human), P42336 [H1047R]
Sequence (P42336 whole entry H1047R, looked up): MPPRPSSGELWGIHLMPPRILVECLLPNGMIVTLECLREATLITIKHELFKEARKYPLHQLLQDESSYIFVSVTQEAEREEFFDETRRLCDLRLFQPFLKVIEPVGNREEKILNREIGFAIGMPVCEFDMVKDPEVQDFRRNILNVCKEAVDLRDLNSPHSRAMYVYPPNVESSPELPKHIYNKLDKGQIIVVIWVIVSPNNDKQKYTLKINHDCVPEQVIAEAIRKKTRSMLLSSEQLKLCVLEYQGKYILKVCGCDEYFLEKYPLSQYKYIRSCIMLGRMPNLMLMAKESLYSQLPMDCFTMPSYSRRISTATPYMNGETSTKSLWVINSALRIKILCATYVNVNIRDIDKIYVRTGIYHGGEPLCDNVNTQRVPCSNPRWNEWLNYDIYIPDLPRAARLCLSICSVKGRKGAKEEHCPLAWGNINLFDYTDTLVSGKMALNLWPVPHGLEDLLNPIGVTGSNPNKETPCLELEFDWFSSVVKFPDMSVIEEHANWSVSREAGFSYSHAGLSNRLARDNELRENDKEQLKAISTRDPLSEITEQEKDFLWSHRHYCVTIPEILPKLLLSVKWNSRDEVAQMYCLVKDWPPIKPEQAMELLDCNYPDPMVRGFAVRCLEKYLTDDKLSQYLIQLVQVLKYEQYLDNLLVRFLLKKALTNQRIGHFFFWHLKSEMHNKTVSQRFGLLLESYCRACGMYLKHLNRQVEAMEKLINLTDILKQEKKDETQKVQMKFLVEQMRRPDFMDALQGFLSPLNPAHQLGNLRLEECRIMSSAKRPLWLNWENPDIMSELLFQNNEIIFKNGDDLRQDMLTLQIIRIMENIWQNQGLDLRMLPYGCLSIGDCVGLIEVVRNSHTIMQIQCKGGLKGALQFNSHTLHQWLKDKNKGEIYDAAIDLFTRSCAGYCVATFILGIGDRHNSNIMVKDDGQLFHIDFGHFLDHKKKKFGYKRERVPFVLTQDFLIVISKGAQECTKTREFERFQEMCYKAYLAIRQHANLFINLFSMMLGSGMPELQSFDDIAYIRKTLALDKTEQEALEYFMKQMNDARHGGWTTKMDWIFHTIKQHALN
Assay: Assessment of PIK3CA(H1047R) Dependent Antiproliferative Activity in KPL-4 Cells
observation.type: pIC50
Numbers only, as −log10 of the molar value.

Oc1cccc(-c2nc(N3CCOCC3)nc3c2CCN3c2cccnc2)c1 has a reported pIC50 of 6.35

* * *

Biological target: EGFR (human), P00533 [L858R]
Sequence (P00533 whole entry L858R, looked up): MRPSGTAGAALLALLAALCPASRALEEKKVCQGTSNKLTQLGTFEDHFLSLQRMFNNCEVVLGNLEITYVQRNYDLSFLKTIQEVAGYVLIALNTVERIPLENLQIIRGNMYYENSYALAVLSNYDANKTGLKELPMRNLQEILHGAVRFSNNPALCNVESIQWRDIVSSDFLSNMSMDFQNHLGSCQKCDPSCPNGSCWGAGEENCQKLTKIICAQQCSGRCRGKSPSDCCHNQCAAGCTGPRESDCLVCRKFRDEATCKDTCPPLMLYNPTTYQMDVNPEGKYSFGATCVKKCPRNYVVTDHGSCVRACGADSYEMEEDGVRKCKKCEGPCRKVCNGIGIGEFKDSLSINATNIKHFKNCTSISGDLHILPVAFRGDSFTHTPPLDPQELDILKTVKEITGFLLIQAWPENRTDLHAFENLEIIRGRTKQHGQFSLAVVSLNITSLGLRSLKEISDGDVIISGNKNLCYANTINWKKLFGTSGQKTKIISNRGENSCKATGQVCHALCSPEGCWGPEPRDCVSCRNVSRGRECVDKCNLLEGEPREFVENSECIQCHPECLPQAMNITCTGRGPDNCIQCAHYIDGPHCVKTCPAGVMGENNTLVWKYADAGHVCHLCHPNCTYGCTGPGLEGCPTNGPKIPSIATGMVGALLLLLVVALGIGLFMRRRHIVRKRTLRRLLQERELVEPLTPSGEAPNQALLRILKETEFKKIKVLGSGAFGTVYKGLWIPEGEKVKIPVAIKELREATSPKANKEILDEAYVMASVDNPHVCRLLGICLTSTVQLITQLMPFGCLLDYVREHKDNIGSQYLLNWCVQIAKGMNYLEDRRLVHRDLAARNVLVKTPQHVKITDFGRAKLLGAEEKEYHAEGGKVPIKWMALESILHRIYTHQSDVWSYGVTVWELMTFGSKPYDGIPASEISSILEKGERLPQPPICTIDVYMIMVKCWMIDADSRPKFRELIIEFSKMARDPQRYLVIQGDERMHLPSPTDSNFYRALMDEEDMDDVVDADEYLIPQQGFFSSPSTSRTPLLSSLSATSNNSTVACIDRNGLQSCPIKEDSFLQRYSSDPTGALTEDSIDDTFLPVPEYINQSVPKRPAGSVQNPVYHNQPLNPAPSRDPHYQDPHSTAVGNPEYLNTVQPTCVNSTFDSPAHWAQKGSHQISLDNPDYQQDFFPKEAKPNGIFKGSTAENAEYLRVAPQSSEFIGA
observation.type: pIC50
Answers are plain numbers, as −log10 of the molar value.

Known value: EGFR (human), P00533 [L858R] pIC50 of the molecule CN(C)C/C=C/C(=O)Nc1cccc(C(=O)Nc2ccc(Nc3nccc(-c4c(-c5ccccc5)nn5ccccc45)n3)cc2)c1 equals 7.60

* * *

Molecular target: UniProtKB Q16539
Sequence (Q16539 whole entry, looked up): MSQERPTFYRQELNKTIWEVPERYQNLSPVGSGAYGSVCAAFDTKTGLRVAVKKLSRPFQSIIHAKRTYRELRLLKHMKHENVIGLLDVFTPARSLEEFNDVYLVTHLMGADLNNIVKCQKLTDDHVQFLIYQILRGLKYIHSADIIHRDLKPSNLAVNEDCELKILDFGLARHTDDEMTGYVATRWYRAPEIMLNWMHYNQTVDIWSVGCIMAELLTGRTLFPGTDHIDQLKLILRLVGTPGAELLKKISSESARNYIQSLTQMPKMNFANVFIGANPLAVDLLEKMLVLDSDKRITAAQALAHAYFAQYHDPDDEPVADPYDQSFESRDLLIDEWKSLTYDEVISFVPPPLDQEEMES
Assay: Inhibition of MAPK14 Kinase Activity
pIC50: −log10 of the molar value.
For each of the compounds below, state its pIC50.

Completed entries (count: 8):
O=C(c1ccc2cc[nH]c2c1)N1CCN(Cc2ccccc2)CC1 : 5.26
CCS(=O)(=O)c1ccc(OC)c(Nc2ncc(-c3cccc(-c4ccccc4F)c3)o2)c1 : < 5.00
CCS(=O)(=O)c1ccc(OC)c(Nc2ncc(-c3cccc(-c4ccccn4)c3)o2)c1 : < 5.00
CNc1nc(C)c(-c2ccnc(Nc3ccc(N4CCN(Cc5ccccc5)CC4)cc3)n2)s1 : < 4.00
CNc1nc(C)c(-c2ccnc(Nc3ccc(N4CCOCC4)cc3)n2)s1 : < 4.00
O=c1ncn2nc(Sc3ccc(F)cc3)ccc2c1-c1c(Cl)cccc1Cl : 7.00
Cc1ccc2ncc(C3=C(c4cn5c6c(cccc46)CN(C(=O)N4CCCCC4)CC5)C(=O)NC3=O)n2c1 : < 4.70
FC(F)(F)c1cnc(Nc2ccc3nc[nH]c3c2)nc1Nc1ccccc1Cl : < 6.00

For every listed record, write down its pIC50.
1. CSc1nc(-c2ccc(F)cc2)c(-c2ccncc2)[nH]1
2. Cc1nc(N)sc1-c1ccnc(Nc2ccc(N3CCOCC3)cc2)n1

Result:
1: 6.20; 2: < 4.00
